system: S.aureus ATCC29213-MSSA; experiment: MIC and MBC microtiter plate assay; format: cell-based, Staphylococcus aureus

# Given smiles, MBC
data = [
    ("CCCCN(CCCC)c1ccc(-c2ccc(C=C3CCCc4c[n+](CC)ccc43)s2)s1.[I-]", "8 µg/mL"),
    ("CC[n+]1ccc2c(c1)CCCC2=Cc1ccc(-c2ccc(Cl)cc2)o1.[I-]", "4 µg/mL"),
    ("CN(C)c1ccc(/C=C/c2cccc(/C=C/c3ccc(N(C)C)cc3)[n+]2C)cc1.[I-]", "2 µg/mL"),
    ("Clc1ccc(Cl)c(-c2ccc(/C=C/c3cc[n+](-c4ncccn4)cc3)o2)c1.F[P-](F)(F)(F)(F)F", "4 µg/mL"),
]
